# pIC50 annotations
# Tested on: HL-60
# ASSAY METHOD TEXT: Cytotoxicity against human HL60 cells assessed as reduction in cell viability by MTT assay
# Type: functional, cell-based
FYI, pIC50 means -log10 of a concentration in mol per litre.

Examples with their reported pIC50 follow.
Q. Return reported pIC50; argument: COc1ccc2c(c1OC)O[C@]13C(=O)N4O[C@H]5[C@H](O)C=C[C@@H](O)[C@@]5(O)C[C@@]4(SS[C@H]21)C(=O)N3C
A. 5.80

Q. Would you kindly repeat that for COc1ccc2c(c1OC)O[C@]13C(=O)N4O[C@H]5[C@H](O)C=C[C@@H](Cl)[C@@]5(O)C[C@@]4(SS[C@H]21)C(=O)N3C ?
A. 7.00

Attention now shifts to the item below.
Q. Return reported pIC50; argument: COc1ccc2c(c1OC)O[C@]13C(=O)N4O[C@H]5[C@H](O)C=C[C@@H](O)[C@@]5(O)C[C@@]4(SSS[C@H]21)C(=O)N3C
A. 5.92

----------
# Tested on: HL-60
# ASSAY METHOD TEXT: Cytotoxicity against human HL60 cells assessed as reduction in cell viability by MTT assay
# Assay type: functional, cell-based
pIC50: −log10 of the molar value.
ENDPOINT LABEL: pIC50

Examples with their reported pIC50 follow.
Q. Request: pIC50, test system HL-60, entry COc1ccc2c(c1OC)O[C@]1(C(=O)N3O[C@H]4[C@H](O)C=C[C@@H](Cl)[C@@]4(O)C[C@@]3(SC)C(=O)N1C)[C@@H]2SC
A. < 4.52

Q. Would you kindly repeat that for COc1ccc2c(c1OC)O[C@]1(C(=O)N3O[C@H]4[C@H](O)C=C[C@@H](O)[C@@]4(O)C[C@@]3(SC)C(=O)N1C)[C@@H]2SC ?
A. < 4.52

New cases:
Q. Request: pIC50, test system HL-60, entry COc1cccc2c1O[C@]1(C(=O)N3O[C@H]4[C@H](O)C=C[C@@H](O)[C@@]4(O)C[C@@]3(SC)C(=O)N1C)[C@@H]2SC
A. < 4.52
